molecular target: UniProt:P80209; assay: Percentage inhibition against cathepsin D at 1.0x10E-5M
Sequence (P80209 whole entry): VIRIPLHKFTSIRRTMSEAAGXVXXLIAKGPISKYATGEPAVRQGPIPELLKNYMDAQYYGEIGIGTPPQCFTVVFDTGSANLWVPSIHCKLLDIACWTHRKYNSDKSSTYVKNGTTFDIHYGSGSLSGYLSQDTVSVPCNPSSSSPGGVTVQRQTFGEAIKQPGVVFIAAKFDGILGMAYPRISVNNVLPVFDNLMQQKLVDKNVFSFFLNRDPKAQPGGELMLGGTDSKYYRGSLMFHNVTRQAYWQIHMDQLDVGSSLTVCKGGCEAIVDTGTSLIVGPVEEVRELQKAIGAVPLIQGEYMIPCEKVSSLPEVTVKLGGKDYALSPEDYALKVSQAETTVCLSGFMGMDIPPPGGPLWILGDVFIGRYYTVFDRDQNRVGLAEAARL
Assay metric: inhibition (%)

CCS(=O)(=O)CC[C@H](O)[C@H](CC1CCCCC1)NC(=O)[C@H](Cc1c[nH]cn1)NC(=O)[C@H](Cc1ccccc1)NC(=O)OC(C)(C)C: 0
COc1ccc(C[C@H](NC(=O)OC(C)(C)C)C(=O)N[C@@H](Cc2c[nH]cn2)C(=O)N[C@@H](CC2CCCCC2)[C@@H](O)CCS(=O)(=O)C(C)C)cc1: 0
CC(C)S(=O)(=O)CC[C@H](O)[C@H](CC1CCCCC1)NC(=O)[C@H](Cc1c[nH]cn1)NC(=O)[C@H](Cc1ccccc1)NC(=O)OC(C)(C)C: 0

1 = CC(C)S(=O)(=O)CC[C@H](O)[C@H](CC1CCCCC1)NC(=O)[C@H](C)NC(=O)[C@H](Cc1ccccc1)NC(=O)OC(C)(C)C
2 = CC(C)S(=O)(=O)CC[C@H](O)[C@H](CC1CCCCC1)NC(=O)[C@H](Cc1ccccc1)NC(=O)[C@H](Cc1ccccc1)NC(=O)OC(C)(C)C
input: Of 1 and 2 , whose reported inhibition is numerically smaller? Write down the label of the entry you select.
output: 2
(2: 0%, 1: 22%)

a = CCOC(=O)N[C@@H](Cc1ccccc1)C(=O)N[C@@H](Cc1c[nH]cn1)C(=O)N[C@@H](CC1CCCCC1)[C@@H](O)CCS(=O)(=O)C(C)C
b = CCS(=O)(=O)CC[C@H](O)[C@H](CC1CCCCC1)NC(=O)[C@H](C)NC(=O)[C@H](Cc1ccccc1)NC(=O)OC(C)(C)C
input: Which of the two gives a bigger number for inhibition: a or b ? Write down the label of the entry you select.
output: b
(b: 18%, a: 0%)
